target: Dual specificity tyrosine-phosphorylation-regulated kinase 1A (Homo sapiens)
READOUT LABEL: IC50 (µM)
Your answer should be a plain number; it is taken to be in µM.

Considering `COc1ccc(Nc2cc(-c3ccncc3)n[nH]c2=O)cc1` , its IC50 with Dual specificity tyrosine-phosphorylation-regulated kinase 1A (Homo sapiens) was recorded as 0.61

Value sought: IC50, system Dual specificity tyrosine-phosphorylation-regulated kinase 1A (Homo sapiens), item `COc1ccc2[nH]c3c(=O)[nH]nc(C)c3c2c1` . Result: 5

Bench note, Dual specificity tyrosine-phosphorylation-regulated kinase 1A (Homo sapiens): `COc1ccc(Nc2cc(-c3ccc(OC)cc3)n[nH]c2=O)cc1` , IC50 reads 5.1

The reported IC50 value, Dual specificity tyrosine-phosphorylation-regulated kinase 1A (Homo sapiens), for `COc1ccc2[nH]c3c(=O)[nH]nc(-c4ccco4)c3c2c1` reads 0.22

The compound `COc1ccc(-c2n[nH]c(=O)c3[nH]c4ccc(OC)cc4c23)cc1` , when measured on Dual specificity tyrosine-phosphorylation-regulated kinase 1A (Homo sapiens), yielded IC50 of 1.5

* * *

molecular target: Glycogen synthase kinase-3 (Homo sapiens, UniProt P49840+P49841); assay: Inhibition of GSK3alpha/beta (unknown origin); format: protein assay
Provide the recorded IC50 for the entries that follow.
Respond with the bare value in µM.

For reference, reported IC50 for `COc1ccc(Nc2cc(-c3ccc(OC)cc3)n[nH]c2=O)cc1` stands at 2.5

Lookup result for `COc1ccc(Nc2cc(-c3ccncc3)n[nH]c2=O)cc1` ; measured IC50: 9.6

* * *

test: Antiproliferative activity against human HuH7 cells; type: functional, cell-based; conditions: Huh-7
pIC50: −log10 of the molar value.
Please provide measured pIC50 for the entries that follow.

get_value(item= `COc1ccc(-c2n[nH]c(=O)c3[nH]c4ccc(OC)cc4c23)cc1` , readout=pIC50) returns < 4.60

Sure, the documented pIC50 for `COc1ccc(Nc2cc(-c3ccco3)n[nH]c2=O)cc1` is < 4.60

Short answer for `COc1ccc(Nc2cc(-c3ccccc3)n[nH]c2=O)cc1` : pIC50 was < 4.60

Value of measured pIC50 for the entry `COc1ccc2[nH]c3c(=O)[nH]nc(-c4ccco4)c3c2c1` : 6.60

Record `COc1ccc2[nH]c3c(=O)[nH]nc(-c4ccc(C(F)(F)F)cc4)c3c2c1` , field pIC50: < 4.60

For `COc1ccc(Nc2cc(-c3ccncc3)n[nH]c2=O)cc1` the compound record lists pIC50 as < 4.60

The reported value for `COc1ccc2[nH]c3c(=O)[nH]nc(C)c3c2c1` in terms of pIC50 is 5.52

* * *

molecular target: Phosphatidylinositol 4,5-bisphosphate 3-kinase catalytic subunit alpha isoform (Homo sapiens); assay: Inhibition of p110alpha (unknown origin)
Sequence (P42336 whole entry, canonical isoform): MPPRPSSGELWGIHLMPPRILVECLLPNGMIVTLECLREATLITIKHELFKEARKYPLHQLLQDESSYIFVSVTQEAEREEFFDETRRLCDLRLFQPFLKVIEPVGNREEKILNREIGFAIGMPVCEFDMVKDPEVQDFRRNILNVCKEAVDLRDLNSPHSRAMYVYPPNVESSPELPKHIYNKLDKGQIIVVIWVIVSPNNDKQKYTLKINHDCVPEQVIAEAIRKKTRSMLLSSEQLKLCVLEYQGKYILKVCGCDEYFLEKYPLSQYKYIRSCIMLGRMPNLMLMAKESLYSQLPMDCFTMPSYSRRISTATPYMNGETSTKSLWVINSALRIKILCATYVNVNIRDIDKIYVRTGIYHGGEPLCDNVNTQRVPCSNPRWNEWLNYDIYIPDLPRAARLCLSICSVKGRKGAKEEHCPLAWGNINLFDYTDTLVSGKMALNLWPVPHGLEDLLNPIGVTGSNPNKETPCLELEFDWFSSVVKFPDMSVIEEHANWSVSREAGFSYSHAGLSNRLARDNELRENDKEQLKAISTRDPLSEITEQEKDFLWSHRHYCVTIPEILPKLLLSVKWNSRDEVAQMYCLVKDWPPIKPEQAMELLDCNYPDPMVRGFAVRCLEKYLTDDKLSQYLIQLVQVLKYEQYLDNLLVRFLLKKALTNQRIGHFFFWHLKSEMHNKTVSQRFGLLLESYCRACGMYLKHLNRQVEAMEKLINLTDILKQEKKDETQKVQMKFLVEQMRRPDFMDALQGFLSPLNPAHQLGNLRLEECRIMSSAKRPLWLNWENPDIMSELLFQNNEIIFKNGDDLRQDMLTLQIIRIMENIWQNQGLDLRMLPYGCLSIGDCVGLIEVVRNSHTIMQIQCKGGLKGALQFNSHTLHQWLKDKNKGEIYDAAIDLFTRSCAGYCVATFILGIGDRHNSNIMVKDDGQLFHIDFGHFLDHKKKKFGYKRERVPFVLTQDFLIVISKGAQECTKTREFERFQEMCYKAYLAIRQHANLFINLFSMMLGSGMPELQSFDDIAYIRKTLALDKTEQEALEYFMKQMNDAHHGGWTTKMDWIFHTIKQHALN
Assign IC50 to each entry below.

Kindly note the recorded IC50 for `COc1ccc(Nc2cc(-c3ccncc3)n[nH]c2=O)cc1` , which is > 10 µM

IC50 reported for this molecule `COc1ccc2[nH]c3c(=O)[nH]nc(-c4ccco4)c3c2c1` : > 10 µM

Consider `COc1ccc(-c2n[nH]c(=O)c3[nH]c4ccc(OC)cc4c23)cc1` . Its measured IC50 is > 10 µM

Documented IC50 of `COc1ccc(Nc2cc(-c3ccccc3)n[nH]c2=O)cc1` : > 10 µM

Reported IC50 for `COc1ccc(Nc2cc(-c3ccco3)n[nH]c2=O)cc1` was > 10 µM

# molecule `COc1ccc2[nH]c3c(=O)[nH]nc(-c4ccc(C(F)(F)F)cc4)c3c2c1` ; its IC50 = 6.9 µM

Reported IC50 ( `COc1ccc2[nH]c3c(=O)[nH]nc(-c4ccccc4)c3c2c1` ) = > 10 µM

* * *

biological target: Glycogen synthase kinase-3 (Homo sapiens, UniProt P49840+P49841); assay: Inhibition of GSK3alpha/beta (unknown origin); assay type: protein assay
READOUT LABEL: IC50

So for `COc1ccc2[nH]c3c(=O)[nH]nc(C)c3c2c1` , the logged IC50 turned out to be > 10 µM

# compound `COc1ccc2[nH]c3c(=O)[nH]nc(-c4ccco4)c3c2c1` ; its IC50 = > 10 µM

Reported IC50 of `COc1ccc2[nH]c3c(=O)[nH]nc(-c4ccc(C(F)(F)F)cc4)c3c2c1` : > 10 µM

Lab book: IC50 of `COc1ccc(Nc2cc(C)n[nH]c2=O)cc1` noted as > 10 µM

Query `COc1ccc(-c2n[nH]c(=O)c3[nH]c4ccc(OC)cc4c23)cc1` yields IC50 of 1.4 µM

Data point: `COc1ccc2[nH]c3c(=O)[nH]nc(-c4ccccc4)c3c2c1` ; IC50 = 1.3 µM

* * *

Exercise: for every item that follows, state its recorded IC50.
assay: Antiproliferative activity against human HCT116 cells; assay type: functional, cell-based; conditions: HCT-116

The compound listed as `COc1ccc(-c2n[nH]c(=O)c3[nH]c4ccc(OC)cc4c23)cc1` shows IC50 equal to > 25 µM

// `COc1ccc(Nc2cc(-c3ccco3)n[nH]c2=O)cc1` : IC50 value = > 25 µM

// `COc1ccc2[nH]c3c(=O)[nH]nc(C)c3c2c1` : IC50 value = 15 µM

Entry `COc1ccc(Nc2cc(-c3ccccc3)n[nH]c2=O)cc1` — recorded IC50 = > 25 µM

Quick note, IC50 for `COc1ccc2[nH]c3c(=O)[nH]nc(-c4ccco4)c3c2c1` landed at 3 µM

Data point: `COc1ccc(Nc2cc(-c3ccncc3)n[nH]c2=O)cc1` ; IC50 = > 25 µM

Form: compound = `COc1ccc2[nH]c3c(=O)[nH]nc(-c4ccc(C(F)(F)F)cc4)c3c2c1` ; IC50 = > 25 µM

* * *

target: Cyclin-dependent kinase 5/CDK5 activator 1 (Homo sapiens, UniProt Q00535); assay: Inhibition of CDK5/p25 (unknown origin)
Sequence (Q00535 whole entry): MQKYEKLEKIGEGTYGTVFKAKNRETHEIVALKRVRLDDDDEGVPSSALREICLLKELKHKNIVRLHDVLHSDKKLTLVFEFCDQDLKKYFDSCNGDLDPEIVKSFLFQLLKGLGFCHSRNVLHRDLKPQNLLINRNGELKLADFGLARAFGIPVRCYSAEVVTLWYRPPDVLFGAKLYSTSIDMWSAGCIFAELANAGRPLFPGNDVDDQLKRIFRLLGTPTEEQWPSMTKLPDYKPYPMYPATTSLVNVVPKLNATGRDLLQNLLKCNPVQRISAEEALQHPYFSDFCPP
Sequence (Q15078 whole entry, further chain): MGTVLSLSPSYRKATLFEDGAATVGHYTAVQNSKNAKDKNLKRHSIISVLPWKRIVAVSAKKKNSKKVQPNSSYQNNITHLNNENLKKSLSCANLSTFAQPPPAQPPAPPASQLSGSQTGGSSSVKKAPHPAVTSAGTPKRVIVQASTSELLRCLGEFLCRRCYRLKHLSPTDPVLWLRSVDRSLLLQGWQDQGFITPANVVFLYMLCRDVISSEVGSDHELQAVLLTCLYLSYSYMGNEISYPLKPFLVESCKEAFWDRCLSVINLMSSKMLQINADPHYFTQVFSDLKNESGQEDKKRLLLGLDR
Give IC50 for every item shown.

// `COc1ccc(Nc2cc(-c3ccccc3)n[nH]c2=O)cc1` : IC50 value = > 10 µM

The value of IC50 measured for the compound `COc1ccc(Nc2cc(-c3ccco3)n[nH]c2=O)cc1` turned out to be > 10 µM

Looking up `COc1ccc2[nH]c3c(=O)[nH]nc(-c4ccco4)c3c2c1` , I found its IC50 recorded as > 10 µM
